# test-summary: in vivo
# Design: species or system mouse
# measurement-parameters: female, nu/nu athymic, mouse, tumor, intraperitoneal; 75 mg/kg ip, 2 h; read-out: PU-WS13 level in tumor
recorded-endpoint: concentration at 2 h

QUERY: concentration at 2 h lookup needed for CC(C)NCCCn1c(Sc2cc(Cl)cc(Cl)c2)nc2c(N)ncnc21 , thanks.
RESULT: ~850 µM

---

# measurement-target: Grp94 (Canis lupus familiaris)
# Sequence (P41148 with tags, fused parts or gaps DELINS287-327GGGG): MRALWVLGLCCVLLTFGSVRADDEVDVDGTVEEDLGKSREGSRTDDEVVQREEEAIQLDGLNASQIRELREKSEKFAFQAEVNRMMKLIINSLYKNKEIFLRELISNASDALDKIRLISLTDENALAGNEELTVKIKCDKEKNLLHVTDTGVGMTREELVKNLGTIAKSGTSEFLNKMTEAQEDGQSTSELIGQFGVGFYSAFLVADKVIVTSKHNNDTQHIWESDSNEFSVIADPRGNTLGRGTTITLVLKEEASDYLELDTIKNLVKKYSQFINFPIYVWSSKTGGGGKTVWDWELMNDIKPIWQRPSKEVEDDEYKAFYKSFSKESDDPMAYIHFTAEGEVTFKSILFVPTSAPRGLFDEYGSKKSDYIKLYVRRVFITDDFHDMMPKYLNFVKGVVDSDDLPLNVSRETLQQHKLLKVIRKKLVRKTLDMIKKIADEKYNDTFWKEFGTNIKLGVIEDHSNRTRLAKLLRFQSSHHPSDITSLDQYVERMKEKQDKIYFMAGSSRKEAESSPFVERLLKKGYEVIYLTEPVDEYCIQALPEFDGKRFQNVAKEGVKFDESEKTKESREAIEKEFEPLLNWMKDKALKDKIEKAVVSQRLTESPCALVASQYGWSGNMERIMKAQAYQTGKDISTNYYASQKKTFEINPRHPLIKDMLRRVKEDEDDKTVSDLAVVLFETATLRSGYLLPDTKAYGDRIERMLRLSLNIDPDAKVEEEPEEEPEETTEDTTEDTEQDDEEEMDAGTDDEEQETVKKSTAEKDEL
# measurement-parameters: read-out: Grp94; FP competition, 6 nM Cy3B-GM, 10 nM protein, 4° C. for 24 h
recorded-endpoint: IC50 (µM)
One number for each entry, in µM.

QUERY: IC50 lookup needed for CC(C)NCCCn1c(Sc2cc(Cl)cc(C#CC(C)(C)C)c2)nc2c(N)ncnc21 , thanks.
RESULT: 0.63

QUERY: IC50 lookup needed for C#CCCCn1c(Sc2ccc(Br)cc2Cl)nc2c(N)ncnc21 , thanks.
RESULT: 0.28

QUERY: IC50 lookup needed for CC(C)NCCCn1c(Sc2ccc(Cl)cc2-c2ccc[nH]2)nc2c(N)ncnc21 , thanks.
RESULT: 1.1

QUERY: IC50 lookup needed for CC(C)CNCCCn1c(Sc2cc(Cl)cc(I)c2)nc2c(N)ncnc21 , thanks.
RESULT: 0.29

QUERY: IC50 lookup needed for CC(C)NCCCn1c(Sc2cc(Cl)cc(/C=C/C(C)(C)C)c2)nc2c(N)ncnc21 , thanks.
RESULT: 0.102

Hi team, please reply with IC50 for each item in this list.
1. C#CCCCn1c(Sc2ccc(Br)cn2)nc2c(N)ncnc21
2. C[C@H](NCCCn1c(Sc2cc(Cl)cc(Cl)c2)nc2c(N)ncnc21)C1CC1 [SO-III-127B]
3. CC(C)NCCCn1c(Sc2ccc(Cl)cc2-c2ccn[nH]2)nc2c(N)ncnc21
4. CC(O)CNCCCn1c(Sc2cc(Cl)cc(Cl)c2)nc2c(N)ncnc21 (stereo not drawn)
5. C#CCCCn1c(Sc2ccccc2CO)nc2c(N)ncnc21

RESULT:
[0.53, 0.345, 0.45, 0.37, 29]

Hi team, please reply with IC50 for each item in this list.
1. CC(C)NCCCn1c(Sc2cc(Cl)cc(-c3ccc[nH]3)c2)nc2c(N)ncnc21
2. COc1cc(Cc2nc3c(N)ncnc3n2C(C)C)cc(OC)c1OC
3. CC(C)NCCCn1c(Sc2cc(Cl)cc(I)c2)nc2c(N)ncnc21
4. CC(C)NCCCn1c(Sc2cc(Cl)cc(-c3ccoc3)c2)nc2c(N)ncnc21
5. CCC[C@H](C)n1c(Cc2cc(OC)c(OC)c(OC)c2)nc2c(N)ncnc21

RESULT:
1: 0.22; 2: 59.3; 3: 0.24; 4: 0.28; 5: 91.3

Hi team, please reply with IC50 for each item in this list.
1. C#CCCCn1c(Sc2cc(Br)cc(OC(F)(F)F)c2)nc2c(N)ncnc21 [PDP-120A]
2. Nc1ncnc2c1nc(Sc1ccc(Cl)cc1Cl)n2CCc1ccccc1F
3. C=C(c1cc(Cl)cc(Sc2nc3c(N)ncnc3n2CCCNC(C)C)c1)C(F)(F)F

RESULT:
1. 1.21
2. 1.9
3. 0.153
